Molecular target: ERR1 (also known as ERR-α or ERR-1) (Homo sapiens, UniProt P11474)
Construct: the ^6His-tagged-ERR1 LBD
Sequence (P11474 193-421 limits assumed): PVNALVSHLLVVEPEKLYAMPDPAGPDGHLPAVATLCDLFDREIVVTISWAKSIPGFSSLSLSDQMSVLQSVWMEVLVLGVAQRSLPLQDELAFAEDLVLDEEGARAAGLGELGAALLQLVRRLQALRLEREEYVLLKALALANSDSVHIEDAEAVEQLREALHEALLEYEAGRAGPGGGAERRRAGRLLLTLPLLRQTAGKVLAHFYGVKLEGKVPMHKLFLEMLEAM
Assay: TR-FRET assay: disruption of co-activator peptide binding to ERR1 LBD
Settings: 6His-tagged ERR1 LBD 6 nM, GST-SRC-2 peptide 6 nM, 25° C., 4-18 hours; average of 3 independent experiments
recorded-metric: EC50 (nM)

test-smiles: COc1cc(/C=C2\SC(NCCn3cncn3)=NC2=O)ccc1Oc1ccc(C#N)cc1C(F)(F)F
measurement-target: ERR1 (also known as ERR-α or ERR-1) (Homo sapiens, UniProt P11474)
recorded-metric: EC50
reading: 16

I. COc1cc(/C=C2\SC(NCC(=O)O)=NC2=O)ccc1Oc1ccc(C#N)cc1C(F)(F)F
II. N#Cc1ccc(Oc2ccc(/C=C3\SC(NCCCN4CCOCC4)=NC3=O)cc2F)c(C(F)(F)F)c1
Hey, between I and II which has a smaller measured EC50? // return label of chosen record II
(II: 10 nM, I: 16 nM)
